Just for reference, patent US20200317776A1 is where these values come from.

Molecular target: T1, human TREM2 Fc fusion (entire TREM2 ECD; only one Fc arm fused to TREM2) (human, UniProt Q9NZC2 19-174)
T1 construct: also called huTREM2-Fc; recombinant hTREM2
T1 sequence: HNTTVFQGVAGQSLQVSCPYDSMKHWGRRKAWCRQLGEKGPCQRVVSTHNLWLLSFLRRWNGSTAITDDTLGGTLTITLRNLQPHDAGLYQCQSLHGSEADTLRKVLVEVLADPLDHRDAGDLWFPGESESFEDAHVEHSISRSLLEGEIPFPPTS
Assay: BLI, IgG, avid
QUANTITY MEASURED: Kd (nM)

>  <BINDER>
AL2p-6 (antibody, V domains shown, AL2p-h50 variant; Fab and IgG formats under one id) VH: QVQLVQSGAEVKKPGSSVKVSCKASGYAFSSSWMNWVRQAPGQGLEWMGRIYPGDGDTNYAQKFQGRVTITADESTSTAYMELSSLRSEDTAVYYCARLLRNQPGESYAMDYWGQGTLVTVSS VL: DVVMTQTPLSLSVTPGQPASISCRSSQSLVHSNWYTYLHWYLQKPGQSPQLLIYKVSNRFSGVPDRFSGSGSGTDFTLKISRVEAEDVGVYYCSQSTRVPYTFGQGTKLEIK

>  <MEASURED VALUE>
1.06

$$$$
>  <BINDER>
AL2p-11 (antibody, V domains shown, Fab and IgG formats under one id) VH: QVQLVQSGAEVKKPGSSVKVSCKASGYAFSSDWMNWVRQAPGQGLEWMGRIYPGDGDTNYARKFQGRVTITADESTSTAYMELSSLRSEDTAVYYCARLLRNQPGESYAMDYWGQGTLVTVSS VL: DVVMTQTPLSLSVTPGQPASISCRSSRSLVHSNGYTYLHWYLQKPGQSPQLLIYKVSNRVSGVPDRFSGSGSGTDFTLKISRVEAEDVGVYYCSQSTRVPYTFGQGTKLEIK

>  <MEASURED VALUE>
0.536

$$$$
>  <BINDER>
AL2p-7 (antibody, V domains shown, Fab and IgG formats under one id) VH: QVQLVQSGAEVKKPGSSVKVSCKASGYAFSLSWMNWVRQAPGQGLEWMGRIYPGDGDTNYAQKFRGRVTITADESTSTAYMELSSLRSEDTAVYYCARLLRNQPGESYAMDYWGQGTLVTVSS VL: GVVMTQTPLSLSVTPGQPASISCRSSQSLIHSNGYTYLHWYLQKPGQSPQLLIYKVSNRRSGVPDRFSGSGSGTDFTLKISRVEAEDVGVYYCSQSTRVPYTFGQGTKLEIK

>  <MEASURED VALUE>
0.427

$$$$
